target: DNA topoisomerase 1 (Homo sapiens) (UniProt P11387); assay: Topoisomerase I […] was evaluated by Fluorescence assay using Ethidium Bromide after heat denaturation of pBR322 DNA at concentration 250 uM; conditions: Escherichia coli
Test Readout: Change (%)
Report only the number, with the unit % understood.

# Change lookup, item "COC(=O)c1cc(NC(=O)c2cc(NC(=O)Cn3cc(C4=C(c5c[nH]c6ccccc56)C(=O)NC4=O)c4ccccc43)cn2C)cn1C" 10

Then this molecule: "CN(C)CCCNC(=O)c1cc(NC(=O)c2cc(NC(=O)Cn3cc(C4=C(c5c[nH]c6ccccc56)C(=O)NC4=O)c4ccccc43)cn2C)cn1C" 14

Then this molecule: "CN(C)CCCNC(=O)c1cc(NC(=O)Cn2cc(C3=C(c4c[nH]c5ccccc45)C(=O)NC3=O)c3ccccc32)cn1C" 2

Then this molecule: "COC(=O)c1cc(NC(=O)c2cc(NC(=O)c3cc(NC(=O)Cn4cc(C5=C(c6c[nH]c7ccccc67)C(=O)NC5=O)c5ccccc54)cn3C)cn2C)cn1C" 20

Then this molecule: "CN(C)CCCNC(=O)c1cc(NC(=O)c2cc(NC(=O)c3cc(NC(=O)Cn4cc(C5=C(c6c[nH]c7ccccc67)C(=O)NC5=O)c5ccccc54)cn3C)cn2C)cn1C" 4

Then this molecule: "COC(=O)c1cc(NC(=O)Cn2cc(C3=C(c4c[nH]c5ccccc45)C(=O)NC3=O)c3ccccc32)cn1C" 17

----------
Target: UniProt:P11387
Sequence (whole entry): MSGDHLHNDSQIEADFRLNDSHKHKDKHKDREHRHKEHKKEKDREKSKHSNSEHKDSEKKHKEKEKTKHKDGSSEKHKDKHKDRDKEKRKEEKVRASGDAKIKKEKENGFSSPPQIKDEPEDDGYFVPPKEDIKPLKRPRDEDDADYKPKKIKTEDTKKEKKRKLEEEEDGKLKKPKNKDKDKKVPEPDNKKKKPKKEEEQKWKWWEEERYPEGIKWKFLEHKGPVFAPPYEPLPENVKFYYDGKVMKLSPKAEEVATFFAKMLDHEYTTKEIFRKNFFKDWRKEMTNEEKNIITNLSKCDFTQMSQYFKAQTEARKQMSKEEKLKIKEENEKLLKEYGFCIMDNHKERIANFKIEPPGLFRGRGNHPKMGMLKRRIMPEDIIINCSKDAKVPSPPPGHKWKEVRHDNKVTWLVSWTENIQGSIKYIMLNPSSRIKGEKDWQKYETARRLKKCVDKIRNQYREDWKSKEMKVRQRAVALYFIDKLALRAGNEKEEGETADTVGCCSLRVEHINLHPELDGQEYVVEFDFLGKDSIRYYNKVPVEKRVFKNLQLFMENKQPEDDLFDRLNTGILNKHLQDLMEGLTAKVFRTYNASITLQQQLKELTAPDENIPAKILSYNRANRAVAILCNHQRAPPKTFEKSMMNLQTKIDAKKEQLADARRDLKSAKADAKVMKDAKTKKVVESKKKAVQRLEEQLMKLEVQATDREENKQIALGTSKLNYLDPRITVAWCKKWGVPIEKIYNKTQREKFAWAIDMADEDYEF
Experiment: Topoisomerase I […] was evaluated by Fluorescence assay using Ethidium Bromide after heat denaturation of pBR322 DNA at concentration 25 uM
Conditions: Escherichia coli; at 25 µM
Change vs 6%: less than gives true; not less than gives false.

Hi there! Is Change for "CN(C)CCCNC(=O)c1cc(NC(=O)c2cc(NC(=O)Cn3cc(C4=C(c5c[nH]c6ccccc56)C(=O)NC4=O)c4ccccc43)cn2C)cn1C" below 6%, do you know? true

Then this compound: "CN(C)CCCNC(=O)c1cc(NC(=O)Cn2cc(C3=C(c4c[nH]c5ccccc45)C(=O)NC3=O)c3ccccc32)cn1C" false

Then this compound: "COC(=O)c1cc(NC(=O)c2cc(NC(=O)c3cc(NC(=O)Cn4cc(C5=C(c6c[nH]c7ccccc67)C(=O)NC5=O)c5ccccc54)cn3C)cn2C)cn1C" false

Then this compound: "COC(=O)c1cc(NC(=O)c2cc(NC(=O)Cn3cc(C4=C(c5c[nH]c6ccccc56)C(=O)NC4=O)c4ccccc43)cn2C)cn1C" true

Then this compound: "COC(=O)c1cc(NC(=O)Cn2cc(C3=C(c4c[nH]c5ccccc45)C(=O)NC3=O)c3ccccc32)cn1C" false

Provenance of the data: ChEMBL document CHEMBL1129036
